- assay.system: human HPK1 (MAP4K1) (Homo sapiens (Human))
- protocol.text: HPK1 IC50 Assay (TR-FRET biochemical kinase assay, STK S1 peptide substrate)
- setup.conditions: recombinant human HPK1 kinase domain 0.15 nM, 10 μM ATP, 1 μM STK S1 peptide; geometric mean of multiple experiments
# IC50 per entry
measure: IC50 (nM)

compound: CC(=O)N1CCC2(CC1)C(=O)N([C@H]1C[C@@H](N3CCCCC3)C1)c1cc(-c3cc4ncn(C(C)C)c4c(Nc4ncc(F)cc4F)n3)ccc12
assay.system: human HPK1 (MAP4K1) (Homo sapiens (Human))
result.units: nM
recorded.number: 5.6

compound: CC(C)n1cnc2cc(-c3ccc4c(c3)N([C@H]3C[C@@H](N5CCCC6(CC6)C5)C3)C(=O)C43CCN(C(=O)C4(C)COC4)CC3)nc(Nc3ccncc3F)c21
assay.system: human HPK1 (MAP4K1) (Homo sapiens (Human))
result.units: nM
recorded.number: 0.2

compound: CC(C)n1cnc2cc(-c3ccc4c(c3)N([C@H]3C[C@@H](N5CC(O)C(C)(C)C5)C3)C(=O)C43CCN(C4COC4)CC3)nc(Nc3ccncc3F)c21 (some centres unmarked)
assay.system: human HPK1 (MAP4K1) (Homo sapiens (Human))
result.units: nM
recorded.number: 0.2

compound: CC(C)n1cnc2cc(-c3ccc4c(c3)N([C@H]3C[C@@H](N5CCC6(CC6)C5)C3)C(=O)C43CCN(C(=O)C4(C)COC4)CC3)nc(Nc3ccncc3F)c21
assay.system: human HPK1 (MAP4K1) (Homo sapiens (Human))
result.units: nM
recorded.number: 0.5

compound: CC(C)n1cnc2cc(-c3ccc4c(c3)N([C@H]3C[C@@H](N5CCC(C)(C)C5)C3)C(=O)C43CCN(C(=O)[C@H]4CC[C@@H](C)O4)CC3)nc(Nc3ccncc3F)c21 [Example 20A]
assay.system: human HPK1 (MAP4K1) (Homo sapiens (Human))
result.units: nM
recorded.number: 0.1

---

# key: entry, value: pIC50
- assay.system: human HPK1 (MAP4K1) (Homo sapiens (Human))
- protocol.text: HPK1 IC50 Assay (TR-FRET biochemical kinase assay, STK S1 peptide substrate)
- setup.conditions: recombinant human HPK1 kinase domain 0.15 nM, 10 μM ATP, 1 μM STK S1 peptide; geometric mean
pIC50: −log10 of the molar value.

compound: CO[C@H]1C[C@@H](C(=O)N2CCC3(CC2)C(=O)N([C@H]2C[C@@H](N4CCC(C)(C)C4)C2)c2cc(-c4cc5ncn(C(C)C)c5c(Nc5ccncc5F)n4)ccc23)C1
assay.system: human HPK1 (MAP4K1) (Homo sapiens (Human))
pIC50: 9.70
//
compound: COC1(C(=O)N2CCC3(CC2)C(=O)N([C@H]2C[C@@H](N4CCCCC4)C2)c2cc(-c4cc5ncn(C(C)C)c5c(Nc5ccncc5F)n4)ccc23)CC1
assay.system: human HPK1 (MAP4K1) (Homo sapiens (Human))
pIC50: 9.52
//
compound: CC(=O)N1CCC2(CC1)C(=O)N([C@H]1C[C@@H](N3CC4CC4C3)C1)c1cc(-c3cc4ncn(C(C)C)c4c(Nc4ccncc4F)n3)ccc12 (some centres unmarked)
assay.system: human HPK1 (MAP4K1) (Homo sapiens (Human))
pIC50: 8.89
//
compound: CC[C@H](O)C(=O)N1CCC2(CC1)C(=O)N([C@H]1C[C@@H](N3CCCCC3)C1)c1cc(-c3cc4ncn(C(C)C)c4c(Nc4ccncc4F)n3)ccc12
assay.system: human HPK1 (MAP4K1) (Homo sapiens (Human))
pIC50: 9.40
//
compound: CC(C)n1cnc2cc(-c3ccc4c(c3)N([C@H]3C[C@@H](N5CC(C)(C)C5)C3)C(=O)C43CCN(C4COC4)CC3)nc(Nc3ccncc3F)c21
assay.system: human HPK1 (MAP4K1) (Homo sapiens (Human))
pIC50: 9.10
//
compound: CC(=O)N1CCC2(CC1)C(=O)N([C@H]1C[C@@H](N3CCC(C)(C)C3)C1)c1cc(-c3cc4ncn(C(C)C)c4c(Nc4cc(C)ncc4F)n3)ccc12
assay.system: human HPK1 (MAP4K1) (Homo sapiens (Human))
pIC50: 9.40
//
compound: CC(C)n1cnc2cc(-c3ccc4c(c3)N([C@H]3C[C@@H](N5CCC(C)(C)C5)C3)C(=O)C43CCN(C(=O)c4ncco4)CC3)nc(Nc3ccncc3F)c21
assay.system: human HPK1 (MAP4K1) (Homo sapiens (Human))
pIC50: 9.40
//
compound: CC(C)n1cnc2cc(-c3ccc4c(c3)N([C@H]3C[C@@H](N5CCCCC5)C3)C(=O)C43CCN(C(=O)C(C)(C)C#N)CC3)nc(Nc3ccncc3F)c21
assay.system: human HPK1 (MAP4K1) (Homo sapiens (Human))
pIC50: 9.52
//
compound: CC(C)n1cnc2cc(-c3ccc4c(c3)N([C@H]3C[C@@H](N5CCCCC5)C3)C(=O)C43CCN(C(=O)C4COC4)CC3)nc(Nc3ccncc3F)c21
assay.system: human HPK1 (MAP4K1) (Homo sapiens (Human))
pIC50: 9.52
//
compound: CC(C)n1cnc2cc(-c3ccc4c(c3)N([C@H]3C[C@@H](N5CCC[C@@H](C)C5)C3)C(=O)C4(C)C)nc(Nc3ccncc3F)c21
assay.system: human HPK1 (MAP4K1) (Homo sapiens (Human))
pIC50: 9.05
//
compound: CC(C)n1cnc2cc(-c3ccc4c(c3)N([C@H]3C[C@@H](N5CC6CCC(C6)C5)C3)C(=O)C43CCN(C(=O)C(C)(C)CO)CC3)nc(Nc3ccncc3F)c21
assay.system: human HPK1 (MAP4K1) (Homo sapiens (Human))
pIC50: 10.15

---

- assay.system: human HPK1 (MAP4K1) (Homo sapiens (Human))
- protocol.text: HPK1 IC50 Assay (TR-FRET biochemical kinase assay, STK S1 peptide substrate)
- setup.conditions: recombinant human HPK1 kinase domain 0.15 nM, 10 μM ATP, 1 μM STK S1 peptide; geometric mean of multiple experiments
Measured IC50, listed per entry for reference.

molecule: COC(=O)N1CCC2(CC1)C(=O)N([C@H]1C[C@@H](N3CCCCC3)C1)c1cc(-c3cc4ncn(C(C)C)c4c(Nc4ccncc4F)n3)ccc12
result.units: nM
IC50: 0.6
--
molecule: CC(C)n1cnc2cc(-c3ccc4c(c3)N([C@H]3C[C@@H](N5CCCC(C)(C)C5)C3)C(=O)C4(C)C)nc(Nc3ccc(=O)n(C)c3)c21
result.units: nM
IC50: 0.2
--
molecule: CC(C)n1cnc2cc(-c3ccc4c(c3)N([C@H]3C[C@@H](N5CCC(C)(C)C5)C3)C(=O)C43CCN(C(=O)[C@H]4CCCO4)CC3)nc(Nc3ccncc3F)c21
result.units: nM
IC50: 0.2
--
molecule: CC(C)n1cnc2cc(-c3ccc4c(c3)N([C@H]3C[C@@H](N5CCC(C)(C)C5)C3)C(=O)C43CCN(C(=O)C4COC4)CC3)nc(Nc3ccncc3F)c21
result.units: nM
IC50: 0.5
--
molecule: CC(C)n1cnc2cc(-c3ccc4c(c3)N([C@H]3C[C@@H](NCC(C)(C)F)C3)C(=O)C4(C)C)nc(Nc3ccncc3F)c21
result.units: nM
IC50: 1.3
--
molecule: CC(C)n1cnc2cc(-c3ccc4c(c3)N([C@H]3C[C@@H](N5CCCC(C)(F)C5)C3)C(=O)C43CCN(C4COC4)CC3)nc(Nc3ccncc3F)c21 (some centres unmarked)
result.units: nM
IC50: 0.4
--
molecule: CC(C)n1cnc2cc(-c3ccc4c(c3)N([C@H]3C[C@@H](N5CCC(C)(C)C5)C3)C(=O)C43CCN(C(=O)C4CCO4)CC3)nc(Nc3ccncc3F)c21 (single isomer, unassigned) [Example 78A]
result.units: nM
IC50: 0.3
--
molecule: CC(C)n1cnc2cc(-c3ccc4c(c3)N([C@H]3C[C@@H](N5CCC(C)(C)C5)C3)C(=O)C43CCN(C(=O)[C@H]4OCC[C@H]4C)CC3)nc(Nc3ccncc3F)c21 [Example 19B]
result.units: nM
IC50: 0.1
--
molecule: CC(C)n1cnc2cc(-c3ccc4c(c3)N([C@H]3C[C@@H](N5C[C@@H](O)C(C)(C)C5)C3)C(=O)C43CCN(C4COC4)CC3)nc(Nc3ccncc3F)c21
result.units: nM
IC50: 0.6
--
molecule: CC(=O)N1CCC2(CC1)C(=O)N([C@H]1C[C@@H](N3CCCCC3)C1)c1cc(-c3cc4ncn(C(C)C)c4c(Nc4ccc(F)nc4F)n3)ccc12
result.units: nM
IC50: 0.1
--
molecule: CC(C)n1cnc2cc(-c3cnc4c(c3)N([C@H]3C[C@@H](N5CCCCC5)C3)C(=O)C4(C)C)nc(Nc3ccnc(F)c3F)c21
result.units: nM
IC50: 2.5

---

- assay.system: human HPK1 (MAP4K1) (Homo sapiens (Human), UniProt Q92918)
- Sequence (Q92918 17-274): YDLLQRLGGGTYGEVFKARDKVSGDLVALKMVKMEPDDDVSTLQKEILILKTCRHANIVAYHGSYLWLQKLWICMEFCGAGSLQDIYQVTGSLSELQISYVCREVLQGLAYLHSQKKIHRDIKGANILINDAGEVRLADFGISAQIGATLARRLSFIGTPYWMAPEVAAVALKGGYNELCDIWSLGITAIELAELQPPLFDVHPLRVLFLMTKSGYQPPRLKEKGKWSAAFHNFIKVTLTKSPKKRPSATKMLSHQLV
- protocol.text: HPK1 IC50 Assay (TR-FRET biochemical kinase assay, STK S1 peptide substrate)
- setup.conditions: recombinant human HPK1 kinase domain 0.15 nM, 10 μM ATP, 1 μM STK S1 peptide; geometric mean of multiple experiments
pIC50: −log10 of the molar value.
measure: pIC50

compound: CC(C)n1cnc2cc(-c3ccc4c(c3)N([C@H]3C[C@@H](N5CCC(C)(C)C5)C3)C(=O)C43CCN(C(=O)[C@@H]4CC[C@H](C)O4)CC3)nc(Nc3ccncc3F)c21 [Example 20B]
measure: pIC50
recorded.number: 10.30
//
compound: CC(C)n1cnc2cc(-c3ccc4c(c3)N([C@H]3C[C@@H](N5CC[C@H](C)C5)C3)C(=O)C43CCN(C4COC4)CC3)nc(Nc3ccncc3F)c21
measure: pIC50
recorded.number: 8.80
//
compound: [2H]C1([2H])N([C@H]2C[C@@H](N3C(=O)C(C)(C)c4ccc(-c5cc6ncn(C(C)C)c6c(Nc6ccncc6F)n5)cc43)C2)C([2H])([2H])C([2H])([2H])C([2H])([2H])C1([2H])[2H]
measure: pIC50
recorded.number: 9.52
//
compound: CC(C)n1cnc2cc(-c3ccc4c(c3)N([C@H]3C[C@@H](N5CCC(C)(C)C5)C3)C(=O)C43CCOCC3)nc(Nc3ccncc3F)c21
measure: pIC50
recorded.number: 9.70
//
compound: CC(C)n1cnc2cc(-c3ccc4c(c3)N([C@H]3C[C@@H](N5CCCCC5)C3)C(=O)C43CCN(C(=O)C4(C)COC4)CC3)nc(Nc3ccc(F)nc3F)c21
measure: pIC50
recorded.number: 9.70
